tested on: SK-MG-1 (Low Grade Glioma); test: Bliss excess, mean over the matrix (fraction); higher = more synergy;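 further: after 72 h of two-drug dosing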
Property measured: Bliss excess
Give bare numbers.

Worked set:
Compound: Cc1cc2ncnn2cc1Nc1ncc2c(n1)n(C1CCOCC1)c(=O)n2C [AZD7648] + O=C(c1cc(Cc2n[nH]c(=O)c3ccccc23)ccc1F)N1CCN(C(=O)C2CC2)CC1 [Olaparib] (first compound max 10 µM, 7x7, partner max 10 µM)
Property measured: Bliss excess
Value: -0.0455

Compound: Cc1c2c(nn1C)CSCc1cc(n(C)n1)CSc1cc(c3ccccc3c1)OCCCc1c(C(=O)O)n(C)c3c-2c(Cl)ccc13 [AZD5991] + CCN(CCO)CCCOc1ccc2c(Nc3cc(CC(=O)Nc4cccc(F)c4)[nH]n3)ncnc2c1 [AZD2811] (first compound max 1 µM, 7x7, partner max 1 µM)
Property measured: Bliss excess
Value: 0.0619

Compound: Cc1cc2ncnn2cc1Nc1ncc2c(n1)n(C1CCOCC1)c(=O)n2C [AZD7648] + CCN(CCO)CCCOc1ccc2c(Nc3cc(CC(=O)Nc4cccc(F)c4)[nH]n3)ncnc2c1 [AZD2811] (first compound max 10 µM, 7x7, partner max 1 µM)
Property measured: Bliss excess
Value: 0.0477

Compound: CCN(CCO)CCCOc1ccc2c(Nc3cc(CC(=O)Nc4cccc(F)c4)[nH]n3)ncnc2c1 [AZD2811] + C[C@@H]1COCCN1C2=NC(=NC(=C2)C3(CC3)[S@](=N)(=O)C)C4=C5C=CNC5=NC=C4 [AZD6738] (first compound max 1 µM, 7x7, partner max 10 µM)
Property measured: Bliss excess
Value: -0.0271

Compound: Cc1cc2ncnn2cc1Nc1ncc2c(n1)n(C1CCOCC1)c(=O)n2C [AZD7648] + C[C@@H]1COCCN1C2=NC(=NC(=C2)C3(CC3)[S@](=N)(=O)C)C4=C5C=CNC5=NC=C4 [AZD6738] (first compound max 10 µM, 7x7, partner max 10 µM)
Property measured: Bliss excess
Value: 0.0011

Compound: CN(CCO)CC[C@H](CSc1ccccc1)Nc1ccc(S(=O)(=O)NC(=O)c2ccc(N3CCC([C@@H](O)c4ccccc4-c4ccc(Cl)cc4)CC3)cc2)cc1S(=O)(=O)C(F)(F)F [AZD4320] + Cc1cc2ncnn2cc1Nc1ncc2c(n1)n(C1CCOCC1)c(=O)n2C [AZD7648] (first compound max 1 µM, 7x7, partner max 10 µM)
Property measured: Bliss excess
Value: -0.0239

Shifting focus to the compound that follows.
QUERY: Tell me the measured Bliss excess of COc1nnc2ccc(N3CCC(c4ccc(OCCN5CCN(C)C(=O)[C@H]5C)cc4)CC3)nn12 [AZD5153] + C[C@@H]1COCCN1C2=NC(=NC(=C2)C3(CC3)[S@](=N)(=O)C)C4=C5C=CNC5=NC=C4 [AZD6738] (first compound max 1 µM, 7x7, partner max 10 µM) , please.
RESULT: -0.0065

Data origin, for the record: the supplement of paper PMC11061612
